# Subject of test: T1, human amylin receptor (amylin 3(a) receptor: human calcitonin receptor plus RAMP-3) (human, UniProt P30988 25-474; O60896 24-148)
# T1 construct: whole, on cells; functional assay used the whole cells; also called hAmylin-R; hAmylinR
# T1 sequence (looked up) 1: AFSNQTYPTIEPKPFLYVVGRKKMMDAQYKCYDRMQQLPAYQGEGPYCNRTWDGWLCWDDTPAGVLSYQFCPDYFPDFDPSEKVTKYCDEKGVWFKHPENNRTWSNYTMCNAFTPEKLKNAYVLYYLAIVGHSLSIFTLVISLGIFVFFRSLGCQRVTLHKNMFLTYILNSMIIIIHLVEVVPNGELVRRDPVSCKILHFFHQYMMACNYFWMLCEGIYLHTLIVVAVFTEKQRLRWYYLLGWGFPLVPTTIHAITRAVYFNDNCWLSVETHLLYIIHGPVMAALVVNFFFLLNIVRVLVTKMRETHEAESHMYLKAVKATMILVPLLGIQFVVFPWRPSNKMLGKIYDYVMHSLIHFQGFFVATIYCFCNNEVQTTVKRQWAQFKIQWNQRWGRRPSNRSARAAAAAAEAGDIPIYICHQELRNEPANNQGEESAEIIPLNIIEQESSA
# T1 sequence (looked up) 2: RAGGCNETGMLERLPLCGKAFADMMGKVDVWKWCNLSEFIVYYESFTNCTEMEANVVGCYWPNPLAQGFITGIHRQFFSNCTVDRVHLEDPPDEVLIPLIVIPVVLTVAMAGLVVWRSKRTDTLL
# Procedure text: SPA competition, displacement of 125I-rat amylin from membranes of BHK cells with human calcitonin receptor + RAMP-3 (Assay V)
# Experimental: The binding assay was performed using scintillation proximity assay (SPA) beads (RPNQ0001) from PerkinElmer and cell membranes from the Amylin 3(a)/CRE-luc cells (as described in Assay (II)) were used. […] The resulting pellet was resuspended in buffer 2 and protein concentration was measured (BCA protein Assay, Pierce). […] Samples were analyzed on TopCounter™ (Packard). The IC₅₀ was calculated using (one site binding competition analysis) GraphPad Prism5 as a measure of receptor affinity.
Numbered stars: 1 amine (or outer) side, 2 acyl side, 3 side chain; on linkers, the order of the positions; unused ones are H or OH. Bridge positions count the residues as written; N and C are the ends. Side chains are listed from the residue outwards. Ends that are not written are not given here. * marks the point of attachment. C20 diacid = O=C(O)CCCCCCCCCCCCCCCCCCC(=O)*; γGlu = O=C(O)[C@H](CCC(=O)[*:2])N[*:1]
Experimental readout: IC50 (nM)
Answers are plain numbers, in nM.

Binder	Experimental readout	Measurement
K([γGlu-C20 diacid])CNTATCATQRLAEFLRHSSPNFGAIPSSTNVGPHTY-NH2 (disulfide 2-7)	IC50	0.179

So what does the record say about IC50 for K([γGlu-γGlu-C20 diacid])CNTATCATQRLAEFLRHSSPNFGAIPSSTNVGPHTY-NH2 (disulfide 2-7 (inferred)) ? 0.377

Where do these numbers come from? They come from patent US20140087995A1.
